Data origin, for the record: patent US11214803B2

System: Yap1 mRNA
Assay: Antisense inhibition of human Yap1 in A-431 cells by cEt gapmers, single dose (Example 4, RTS4814)
Type: cell-based
Conditions: Table 15; A-431 cells, 5,000 cells per well, free uptake, 2,000 nM, approximately 48 hours; RTS4814; normalized to RIBOGREEN; Yap1 mRNA relative to untreated control; * = targets amplicon region of primer probe set
Strand notation (5' to 3'): a small letter for the sugar, then the base; units joined by * are phosphorothioate-linked, units joined directly phosphodiester-linked; [ ] holds rarer units or linkages, { } end groups; capitals alone tell only the bases. k = constrained ethyl (cEt); [5mC] = 5-methylcytosine; d = 2'-deoxy (DNA)
measure: YAP1 (% UTC)
Reply with just the number (in % UTC).

Param readout= YAP1 (% UTC); system= Yap1 mRNA; entry= 1075393 (k[5mC]*kT*kT*dA*dA*d[5mC]*d[5mC]*dT*dA*dT*dG*d[5mC]*d[5mC]*kA*kA*kA; antisense) [Compound 1075393] ; returns value.
37

// repeat for 1076513 (antisense k[5mC]*kA*kT*dT*dA*dA*d[5mC]*dA*d[5mC]*dT*d[5mC]*d[5mC]*dT*k[5mC]*kA*kG) [Compound 1076513] and report
36

// repeat for 1076481 (antisense k[5mC]*kT*kA*dA*dG*dT*dA*dA*dG*dG*dT*dT*dT*k[5mC]*k[5mC]*k[5mC]) [Compound 1076481] and report
1

====

System: Yap1 mRNA
Experiment: Antisense inhibition of human Yap1 in A-431 cells by cEt gapmers, single dose (Example 2, RTS4814)
Assay type: cell-based
Conditions: Table 32; Yap1 mRNA, percent of untreated control; 3-10-3 cEt gapmers targeting SEQ ID NO.: 1, and 2
Strand notation (5' to 3'): a small letter for the sugar, then the base; units joined by * are phosphorothioate-linked, units joined directly phosphodiester-linked; [ ] holds rarer units or linkages, { } end groups; capitals alone tell only the bases. k = constrained ethyl (cEt); [5mC] = 5-methylcytosine; d = 2'-deoxy (DNA)
measure: YAP1 (% UTC)
Kindly format the answer as number then unit.

Could you share which YAP1 (% UTC) value was measured for 1075218 (k[5mC]*kT*kT*dA*dA*d[5mC]*dA*d[5mC]*dT*dG*dG*dT*dA*kA*kG*kA; antisense) [compound 1075218] ?
97 % UTC

// repeat for 1074130 (kA*kT*k[5mC]*d[5mC]*d[5mC]*d[5mC]*d[5mC]*dG*d[5mC]*d[5mC]*d[5mC]*d[5mC]*dG*kG*k[5mC]*kG; antisense) [compound 1074130] and report
119 % UTC

// repeat for 1075986 (kG*kA*kA*dT*dA*dT*d[5mC]*dG*dA*dA*dA*dA*dG*k[5mC]*kA*kA; antisense) [compound 1075986] and report
26 % UTC

====

Test system: Yap1 mRNA
Assay: Antisense inhibition of human Yap1 in A-431 cells by cEt gapmers, single dose (Example 2, RTS4814)
Format: cell-based
Conditions: Table 22; Yap1 mRNA as percent of untreated control; 3-10-3 cEt gapmers; single dose
Strand notation (5' to 3'): a small letter for the sugar, then the base; units joined by * are phosphorothioate-linked, units joined directly phosphodiester-linked; [ ] holds rarer units or linkages, { } end groups; capitals alone tell only the bases. k = constrained ethyl (cEt); [5mC] = 5-methylcytosine; d = 2'-deoxy (DNA)
Rule: class 1 for YAP1 (% UTC) not less than 50 % UTC, class 0 for anything less.

Confirm if YAP1 (% UTC) reported for the substance 1074408 (antisense kG*kA*kT*dT*dA*dA*dA*dG*dT*dA*dT*d[5mC]*dT*kT*kG*k[5mC]) [Compound 1074408] is 50 % UTC or above.
class 0

// repeat for 1074920 (antisense kA*k[5mC]*kT*d[5mC]*dA*dA*dG*dT*dT*dA*d[5mC]*dA*dT*k[5mC]*k[5mC]*k[5mC]) [Compound 1074920] and report
class 1

// repeat for 1074824 (k[5mC]*k[5mC]*kT*dG*dA*dG*d[5mC]*dA*d[5mC]*dT*d[5mC]*dA*dT*kT*kT*k[5mC]; antisense) [Compound 1074824] and report
class 1

// repeat for 1075624 (kA*kT*k[5mC]*dT*dA*dT*dA*dA*d[5mC]*d[5mC]*d[5mC]*dT*dT*kA*kT*kT; antisense) [Compound 1075624] and report
class 1

// repeat for 1074504 (kT*k[5mC]*kG*dA*dG*dA*dT*dT*dT*dA*dA*dA*dT*kA*kA*kG; antisense) [Compound 1074504] and report
class 1

// repeat for 1074152 (antisense k[5mC]*kG*kG*dG*d[5mC]*d[5mC]*dG*dA*dG*dG*dT*dG*dG*kA*kG*kA) [Compound 1074152] and report
class 1

// repeat for 1074984 (antisense kA*kT*k[5mC]*dA*d[5mC]*d[5mC]*dT*dT*dT*dT*dA*dT*dT*kG*k[5mC]*k[5mC]) [Compound 1074984] and report
class 0

// repeat for 1074888 (antisense kG*kT*kT*dT*dA*dG*d[5mC]*d[5mC]*dT*dG*dA*dA*dG*k[5mC]*kA*kA) [Compound 1074888] and report
class 1

// repeat for 1075496 (antisense kT*kT*kA*dT*dA*dT*dA*dA*dT*dG*d[5mC]*dA*dG*kG*k[5mC]*kT) [Compound 1075496] and report
class 0

// repeat for 1075720 (k[5mC]*kT*kT*dT*dA*d[5mC]*dT*dA*d[5mC]*dA*dT*dA*dT*kA*kG*k[5mC]; antisense) [Compound 1075720] and report
class 0

// repeat for 1075880 (kA*kT*kT*dA*dA*d[5mC]*dT*dA*d[5mC]*dA*d[5mC]*d[5mC]*dA*k[5mC]*kG*kA; antisense) [Compound 1075880] and report
class 0

// repeat for 1075816 (kT*kA*kG*dT*dA*dT*dA*dA*dA*dG*d[5mC]*dA*dG*kG*kG*k[5mC]; antisense) [Compound 1075816] and report
class 0

====

System: Yap1 mRNA
Test: Antisense inhibition of human Yap1 in SNU-449 cells by modified oligonucleotides, single dose (Example 5, RTS36584)
Format: cell-based
Settings: Table 52; Yap1 mRNA, modified oligonucleotides targeting SEQ ID NO: 1 and 2
Strand notation (5' to 3'): a small letter for the sugar, then the base; units joined by * are phosphorothioate-linked, units joined directly phosphodiester-linked; [ ] holds rarer units or linkages, { } end groups; capitals alone tell only the bases. k = constrained ethyl (cEt); [5mC] = 5-methylcytosine; d = 2'-deoxy (DNA); m = 2'-O-methyl
measure: YAP1 (% UT)
Reply with just the number (in % UT).

Could you share which YAP1 (% UT) value was measured for 1200856 (kT*kG*kT*dA*dT*mG*dT*d[5mC]*dA*dG*dA*dA*dG*kA*kG*kT; antisense) [Compound 1200856] ?
29

// repeat for 715487 (antisense kA*kT*kT*dA*d[5mC]*dT*dT*d[5mC]*dA*dT*dA*dG*d[5mC]*kT*kT*kA) [Compound 715487] and report
29

// repeat for 1200832 (kA*kT*kT*dT*dA*mG*dG*dA*dT*dG*d[5mC]*dA*dT*kG*kG*kT; antisense) [Compound 1200832] and report
61

// repeat for 1200848 (kA*kT*kA*dT*dT*mG*d[5mC]*dA*dA*dT*d[5mC]*dT*dG*kT*k[5mC]*kT; antisense) [Compound 1200848] and report
58

// repeat for 1200813 (k[5mC]*kT*kT*dT*dT*mA*d[5mC]*dA*dT*dT*dA*dG*dG*kA*kA*k[5mC]; antisense) [Compound 1200813] and report
58

// repeat for 1200846 (kG*kA*k[5mC]*dA*dA*mC*dT*d[5mC]*dT*dT*dA*dT*dA*kT*kG*kG; antisense) [Compound 1200846] and report
38

// repeat for 1200870 (kA*k[5mC]*kT*dA*dA*mG*dT*dA*dA*dG*dG*dT*dT*kT*k[5mC]*k[5mC]; antisense) [Compound 1200870] and report
73

// repeat for 1200831 (kT*kT*kT*dA*dG*mG*dA*dT*dG*d[5mC]*dA*dT*dG*kG*kT*kT; antisense) [Compound 1200831] and report
42

// repeat for 1200840 (k[5mC]*kT*kT*dA*dT*mA*dT*dG*dG*dT*dT*dT*dT*kG*kT*kG; antisense) [Compound 1200840] and report
48

// repeat for 1200819 (kT*kT*kA*dA*dG*mC*dA*d[5mC]*dT*dT*dT*dT*dA*k[5mC]*kA*kT; antisense) [Compound 1200819] and report
101

// repeat for 1200843 (kA*k[5mC]*kT*d[5mC]*dT*mU*dA*dT*dA*dT*dG*dG*dT*kT*kT*kT; antisense) [Compound 1200843] and report
46

// repeat for 1200827 (kA*kG*kT*dG*d[5mC]*mU*dT*dT*dG*dG*dA*dA*dG*kA*kT*k[5mC]) [Compound 1200827] and report
67

// repeat for 1200851 (kG*kT*kA*dA*dT*mA*dT*dT*dG*d[5mC]*dA*dA*dT*k[5mC]*kT*kG; antisense) [Compound 1200851] and report
25
